These entries and their values trace back to patent US20180334496A1.

targetOrTestSystem: human Complement Factor D (serum purified) (human, UniProt P00746 26-253)
Sequence (P00746 26-253): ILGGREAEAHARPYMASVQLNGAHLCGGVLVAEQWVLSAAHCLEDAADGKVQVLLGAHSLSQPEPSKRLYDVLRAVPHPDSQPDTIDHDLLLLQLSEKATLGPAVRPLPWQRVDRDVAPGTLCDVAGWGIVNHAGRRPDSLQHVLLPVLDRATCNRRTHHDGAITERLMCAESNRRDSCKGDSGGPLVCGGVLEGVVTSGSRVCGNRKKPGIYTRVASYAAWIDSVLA
testDescription: cell-based or functional assay
binders and their reported % no ab control, CFD enzymatic activity on Z-L-Lys-SBzl
measuredParameter: % no ab control, CFD enzymatic activity on Z-L-Lys-SBzl (% no ab control)

{"binder": "34I54V59D84S/54R101V (SEQ ID NO: 184) (antibody, V domains shown) VH: EVQLVESGGGLVQPGGSLRLSCAASGYTFTDYYINWVRQAPGKGLEWIGDINPVTGDTDYNADFKRRFTFSLDTSKSTAYLQMSSLRAEDTAVYYCTREGPSFAYWGQGTLVTVSS VL: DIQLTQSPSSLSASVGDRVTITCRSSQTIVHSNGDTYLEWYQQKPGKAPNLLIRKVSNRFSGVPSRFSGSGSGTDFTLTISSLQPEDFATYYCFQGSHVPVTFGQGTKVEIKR", "quantitativeReadout": 23.3}
{"binder": "KCD119 TAF (antibody, V domains shown) VH: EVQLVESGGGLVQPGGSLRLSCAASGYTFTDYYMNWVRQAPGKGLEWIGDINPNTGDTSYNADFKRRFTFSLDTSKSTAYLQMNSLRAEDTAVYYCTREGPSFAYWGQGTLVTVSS VL: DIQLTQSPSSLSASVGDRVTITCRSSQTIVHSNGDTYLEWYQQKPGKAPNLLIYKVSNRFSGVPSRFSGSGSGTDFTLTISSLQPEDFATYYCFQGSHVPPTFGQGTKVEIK", "quantitativeReadout": 19.6}
{"binder": "Mouse KCD119 (antibody, V domains shown) VH: EVQLQQSGPELVKPGASVKISCKASGYTFTDYYTNWMRQRHGESLEWIGDINPNTGDTSYNQKFRVKATLTVDKSSGTAYMGLRSLTSEDSAVYYCTREGPSFAYWGQGTLVTVSA VL: DVLMTQTPLSLPVSLGDQASISCRSSQTIVHSNGDTYLEWYLQKPGQSPNLLIYKVSNRFSGVPDRFSGSGSGTDFTLKISRVEAEDLGVYYCFQGSHVPPTFGGGTTLEIK", "quantitativeReadout": 15.3}
{"binder": "31S34I54V59D84S/54R101V (SEQ ID NO: 184) (antibody, V domains shown) VH: EVQLVESGGGLVQPGGSLRLSCAASGYTFTSYYINWVRQAPGKGLEWIGDINPVTGDTDYNADFKRRFTFSLDTSKSTAYLQMSSLRAEDTAVYYCTREGPSFAYWGQGTLVTVSS VL: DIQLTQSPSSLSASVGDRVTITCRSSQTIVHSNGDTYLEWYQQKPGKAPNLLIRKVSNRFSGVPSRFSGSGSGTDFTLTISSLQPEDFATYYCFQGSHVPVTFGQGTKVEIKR", "quantitativeReadout": 28.6}
